- System: Radical scavenging activity
- method notes: DPPH radical scavenging activity at 0.0312 g/L
- Type: functional
Label True when Activity is strictly below 30%; otherwise label False.

> print(dat)
                          query.smiles    cat
1            Fc1ccc(Nc2csc3ccccc23)cc1  False
2    CCOC(=O)c1sc2ccccc2c1Nc1ccc(F)cc1   True
3     Cc1cc2c(C)c(C)sc2cc1Nc1ccc(F)cc1   True
4  COc1ccc(Nc2cc3sc(C)c(C)c3cc2C)cc1OC  False

====

- System: Radical scavenging activity
- method notes: DPPH radical scavenging activity at 0.0625 g/L
- Format: functional
We'd kindly ask you to apply these Activity classes: low end: < 0.7%; middle: ≥ 0.7% and < 70%; high end: ≥ 70%

> print(dat)
                                query.smiles            system.under.test       cat
 1        CCOC(=O)c1sc2ccccc2c1Nc1ccc(OC)cc1  Radical scavenging activity   low end
 2  COc1ccc(O)c(C(C)(C)C)c1.COc1ccc(O)cc1C(C)(C)C  Radical scavenging activity  high end
 3         COc1ccc(Nc2cc3sc(C)c(C)c3cc2C)cc1  Radical scavenging activity  high end
 4          Cc1cc(C(C)(C)C)c(O)c(C(C)(C)C)c1  Radical scavenging activity    middle
 5       COc1ccc(Nc2cc3sc(C)c(C)c3cc2C)cc1OC  Radical scavenging activity  high end
 6          Cc1cc2c(C)c(C)sc2cc1Nc1ccc(F)cc1  Radical scavenging activity   low end
 7    COc1ccc(Nc2c(C(=O)O)sc3ccccc23)c(OC)c1  Radical scavenging activity    middle
 8            Cc1cc2c(C)c(C)sc2cc1Nc1ccccc1F  Radical scavenging activity   low end
 9                 Fc1ccc(Nc2csc3ccccc23)cc1  Radical scavenging activity    middle
10      CCOC(=O)c1sc2ccccc2c1Nc1ccc(OC)cc1OC  Radical scavenging activity    middle

====

The entries below are paired with their reported Activity.
- System: Radical scavenging activity
- method notes: DPPH radical scavenging activity at 0.0312 g/L
- Assay type: functional
parameter measured: Activity (%)

> print(dat)
                               query.smiles  endpoint.unit  obs.value
1      CCOC(=O)c1sc2ccccc2c1Nc1ccc(OC)cc1OC              %       34.8
2            Cc1cc2c(C)c(C)sc2cc1Nc1ccccc1F              %          0
3        CCOC(=O)c1sc2ccccc2c1Nc1ccc(OC)cc1              %          0
4          Cc1cc(C(C)(C)C)c(O)c(C(C)(C)C)c1              %       38.3
5         COc1ccc(Nc2cc3sc(C)c(C)c3cc2C)cc1              %       68.5
6  COc1ccc(O)c(C(C)(C)C)c1.COc1ccc(O)cc1C(C)(C)C              %         63

====

- Tested on: Radical scavenging activity
- method notes: DPPH radical scavenging activity at 0.250 g/L
- Format: functional
Parameter threshold = 80%. Response is 1 (yes) when Activity meets or exceeds it, else 0 (no).

> print(dat)
                                query.smiles            system.under.test      cat
 1    COc1ccc(Nc2c(C(=O)O)sc3ccccc23)c(OC)c1  Radical scavenging activity  1 (yes)
 2         CCOC(=O)c1sc2ccccc2c1Nc1ccc(F)cc1  Radical scavenging activity   0 (no)
 3                 Fc1ccc(Nc2csc3ccccc23)cc1  Radical scavenging activity  1 (yes)
 4        CCOC(=O)c1sc2ccccc2c1Nc1ccc(OC)cc1  Radical scavenging activity   0 (no)
 5          Cc1cc2c(C)c(C)sc2cc1Nc1ccc(F)cc1  Radical scavenging activity   0 (no)
 6  COc1ccc(O)c(C(C)(C)C)c1.COc1ccc(O)cc1C(C)(C)C  Radical scavenging activity  1 (yes)
 7      CCOC(=O)c1sc2ccccc2c1Nc1ccc(OC)cc1OC  Radical scavenging activity   0 (no)
 8       COc1ccc(Nc2cc3sc(C)c(C)c3cc2C)cc1OC  Radical scavenging activity   0 (no)
 9          Cc1cc(C(C)(C)C)c(O)c(C(C)(C)C)c1  Radical scavenging activity  1 (yes)
10         COc1ccc(Nc2cc3sc(C)c(C)c3cc2C)cc1  Radical scavenging activity   0 (no)
11            Cc1cc2c(C)c(C)sc2cc1Nc1ccccc1F  Radical scavenging activity   0 (no)

Cited source: ChEMBL document CHEMBL1139035
